Where do the numbers come from? From patent US20230095520A1.

biological target: Recombinant purified human CDK7 (Homo sapiens); construct: purchased ThermoFisher PV3868; assay: CDK7 activity inhibition, ADP-Glo kinase assay; assay type: biochemical; details: ATP 90 μM, MBP substrate, 2 hours 30° C.
Sequence (P50613 whole entry): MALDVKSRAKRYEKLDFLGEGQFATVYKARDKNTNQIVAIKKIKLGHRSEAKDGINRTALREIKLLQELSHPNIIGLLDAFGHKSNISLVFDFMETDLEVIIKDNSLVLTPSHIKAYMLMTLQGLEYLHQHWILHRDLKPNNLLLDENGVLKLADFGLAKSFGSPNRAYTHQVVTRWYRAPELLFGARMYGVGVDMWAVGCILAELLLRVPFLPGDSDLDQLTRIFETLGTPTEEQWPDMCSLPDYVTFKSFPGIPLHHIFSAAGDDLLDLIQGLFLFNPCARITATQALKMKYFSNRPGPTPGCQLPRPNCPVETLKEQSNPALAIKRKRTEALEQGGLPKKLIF
Sequence (P51946 whole entry partner): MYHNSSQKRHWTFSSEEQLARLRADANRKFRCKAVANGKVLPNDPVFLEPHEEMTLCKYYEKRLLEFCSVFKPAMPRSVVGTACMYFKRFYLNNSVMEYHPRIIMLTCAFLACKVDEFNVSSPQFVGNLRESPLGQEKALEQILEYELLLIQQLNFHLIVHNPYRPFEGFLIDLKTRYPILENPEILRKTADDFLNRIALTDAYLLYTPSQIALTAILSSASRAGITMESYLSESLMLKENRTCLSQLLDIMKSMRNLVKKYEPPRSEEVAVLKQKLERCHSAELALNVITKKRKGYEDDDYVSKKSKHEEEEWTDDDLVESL
Sequence (P51948 whole entry partner): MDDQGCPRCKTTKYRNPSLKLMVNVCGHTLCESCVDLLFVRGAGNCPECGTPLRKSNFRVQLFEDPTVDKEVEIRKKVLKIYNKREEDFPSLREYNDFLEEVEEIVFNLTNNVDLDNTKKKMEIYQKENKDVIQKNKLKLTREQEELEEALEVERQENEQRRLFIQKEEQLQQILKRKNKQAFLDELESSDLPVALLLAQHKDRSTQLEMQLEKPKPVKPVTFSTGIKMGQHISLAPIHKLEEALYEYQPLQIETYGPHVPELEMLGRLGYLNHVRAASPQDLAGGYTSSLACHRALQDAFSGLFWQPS
metric: IC50 (nM)

(1) C[C@H](C(=O)Nc1ncc(N(C)C)s1)c1cccc(-c2cnc(NC(=O)/C=C/CN(C)C)cn2)c1
(2) C[C@H](C(=O)Nc1ncc(C(F)(F)F)s1)c1cccc(-c2cnc(NC(=O)/C=C/CN3CCC(O)C3)cn2)c1 (some centres unmarked)
Input line: Determine, for 1 and 2 , which has the greater value of IC50. // output: label of the selected item
Output line: 1
(1: 71 nM, 2: 9 nM)

* * *

tested on: MDA-MB-468 cells; assay: MDA-MB-468 cell proliferation inhibition (MTT); assay type: cell-based; conditions: Homo sapiens, MDA-MB-468, 72 h, MDA-MB-468 proliferation
# key: entry, value: IC50

Input line: // Input: CCc1cnc(NC(=O)[C@@H](C)c2cccc(-c3cnc(NC(=O)/C=C/CN(C)C)c(F)c3)c2)s1 . Output its IC50 only.
Output line: ≤ 14 nM

Input line: // Input: CCc1cnc(NC(=O)[C@@H](C)c2cccc(-c3cnc(NC(=O)/C=C/CN(C)C)c(C#N)c3)c2)s1 . Output its IC50 only.
Output line: ≤ 14 nM

Input line: // Input: C=CC(=O)Nc1cnc(-c2cncc(C(C)C(=O)Nc3ncc(C(F)(F)F)s3)c2)cn1 (stereo not drawn) . Output its IC50 only.
Output line: ≤ 14 nM
